target: hNPR-A (Homo sapiens); assay: Accumulation of intracellular cGMP in HEK-293 cells that express recombinant hNPR-A; details: HEK-hNPRA cells
Sequence (P16066 33-1061): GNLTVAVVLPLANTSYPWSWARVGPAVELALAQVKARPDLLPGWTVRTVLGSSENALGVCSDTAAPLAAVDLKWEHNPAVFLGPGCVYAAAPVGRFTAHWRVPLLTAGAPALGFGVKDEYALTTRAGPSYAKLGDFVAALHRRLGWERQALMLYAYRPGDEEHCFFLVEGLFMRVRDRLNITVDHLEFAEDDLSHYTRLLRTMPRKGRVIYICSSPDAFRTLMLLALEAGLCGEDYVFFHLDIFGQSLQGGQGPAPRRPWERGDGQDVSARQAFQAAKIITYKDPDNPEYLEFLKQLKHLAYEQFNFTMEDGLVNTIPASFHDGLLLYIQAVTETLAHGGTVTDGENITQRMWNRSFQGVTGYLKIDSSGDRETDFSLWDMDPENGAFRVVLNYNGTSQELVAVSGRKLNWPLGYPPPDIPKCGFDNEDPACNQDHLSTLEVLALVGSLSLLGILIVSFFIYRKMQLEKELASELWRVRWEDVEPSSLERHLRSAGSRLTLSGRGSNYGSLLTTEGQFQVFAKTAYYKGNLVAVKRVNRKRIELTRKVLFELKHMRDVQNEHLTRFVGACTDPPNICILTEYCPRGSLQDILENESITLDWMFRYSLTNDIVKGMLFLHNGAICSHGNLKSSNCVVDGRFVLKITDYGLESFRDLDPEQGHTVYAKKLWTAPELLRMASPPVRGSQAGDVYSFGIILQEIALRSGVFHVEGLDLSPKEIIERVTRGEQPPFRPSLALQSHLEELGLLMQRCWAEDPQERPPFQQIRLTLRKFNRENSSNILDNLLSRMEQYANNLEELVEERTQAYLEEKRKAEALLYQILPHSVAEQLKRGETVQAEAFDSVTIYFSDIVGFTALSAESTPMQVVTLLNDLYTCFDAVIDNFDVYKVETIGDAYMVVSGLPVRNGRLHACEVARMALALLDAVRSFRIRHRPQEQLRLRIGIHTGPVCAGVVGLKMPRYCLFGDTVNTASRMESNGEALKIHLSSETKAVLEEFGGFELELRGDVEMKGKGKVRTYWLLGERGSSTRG
Bridge positions count the residues as written; N and C are the ends. Square brackets hold non-standard residues; d marks the D form. Peptide text beside a SMILES is read from it. * marks the point of attachment. X1 = N=C(N)NCCC[C@H]1C(=O)N[C@@H](C(N)=O)CN1*; dNle = CCCC[C@@H](N)C(=O)O; Heptanoyl = CCCCCCC(=O)*; Nle = CCCC[C@H](N)C(=O)O; Dab = NCC[C@H](N)C(=O)O; Dap = NC[C@H](N)C(=O)O
Exercise: state measured EC50 for each of the compounds provided.

{"Compound": "CCCCCCC(=O)N[C@H]1CC(=O)NCC[C@@H](C(=O)N[C@@H](Cc2ccc(O)cc2)C(=O)N2C[C@H](C(N)=O)NC(=O)[C@@H]2CCCNC(=N)N)NC(=O)[C@H](CO)NC(=O)[C@H]([C@@H](C)CC)NC(=O)[C@H](CCCNC(=N)N)NC(=O)[C@H](CC(=O)O)NC(=O)[C@H](CCCC)NC(=O)[C@H](CCCNC(=N)N)NC(=O)CNC(=O)CNC(=O)[C@H](Cc2ccccc2)NC(=O)[C@H](Cc2c[nH]cn2)NC1=O [4-137] (Heptanoyl-DHFGGR[Nle]DRIS[Dab]Y-X1; lactam 1-12)", "Endpoint value": "0.25 nM"}

# input for lookup
Query CCCCCCC(=O)NC[C@@H]1NC(=O)CC[C@@H](C(=O)N[C@@H](Cc2ccc(O)cc2)C(=O)N2C[C@H](C(N)=O)NC(=O)[C@@H]2CCCNC(=N)N)NC(=O)[C@H](CO)NC(=O)[C@H]([C@@H](C)CC)NC(=O)[C@H](CCCNC(=N)N)NC(=O)[C@H](CC(=O)O)NC(=O)[C@@H](CCCC)NC(=O)[C@H](CCCNC(=N)N)NC(=O)CNC(=O)[C@@H](C)NC(=O)[C@H](Cc2ccccc2)NC(=O)[C@H](Cc2c[nH]cn2)NC1=O [3-76] ([Dap](Heptanoyl)HF[dA]GR[dNle]DRISEY-X1; lactam N-12) yields EC50 of 10 nM
